Tested on: HeLa cell line
Assay: Proliferation assay (HeLa cell line), crystal violet staining
Format: cell-based
Details: Homo sapiens, HeLa, 96 h, read-out: Biological Assay 2: Proliferation assay (HeLa cell line) median IC50
pIC50: −log10 of the molar value.
Property: pIC50

(P) CCOc1cc(F)c(Cn2nc(-c3ncc(OC)c(Nc4ccc(F)cc4C(N)=O)n3)c3ccccc32)c(F)c1
(Q) CCOc1cc(F)c(Cn2nc(-c3cc(Nc4ccncn4)ncn3)c3ccccc32)c(F)c1
QUERY: // pick min by pIC50: P , Q Identify your selection by its label.
RESULT: Q
(Q: 5.30, P: 5.62)

###

Molecular target: catalytic domain of human Bub1 (amino acids 704-1085) (Homo sapiens)
Construct: catalytic domain of human Bub1 (amino acids 704-1085); His6 (N); made in house; host or cells: Hi5 insect cells
Sequence (O43683 704-1085): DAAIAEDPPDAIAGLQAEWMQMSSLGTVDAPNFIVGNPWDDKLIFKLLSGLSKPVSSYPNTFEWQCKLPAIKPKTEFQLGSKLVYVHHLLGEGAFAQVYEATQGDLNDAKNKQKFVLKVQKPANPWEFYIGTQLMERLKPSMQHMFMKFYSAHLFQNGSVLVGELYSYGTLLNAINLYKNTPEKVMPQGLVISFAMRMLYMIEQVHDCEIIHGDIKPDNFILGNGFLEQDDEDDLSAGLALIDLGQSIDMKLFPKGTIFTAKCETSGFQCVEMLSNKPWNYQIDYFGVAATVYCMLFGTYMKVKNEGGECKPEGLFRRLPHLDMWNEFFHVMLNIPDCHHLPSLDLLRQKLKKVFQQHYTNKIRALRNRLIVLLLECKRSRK
Assay: Bub1 kinase assay (TR-FRET)
Format: biochemical
Details: TR-FRET, recombinant catalytic domain of human Bub1, ATP 10 μM, peptide substrate 1 μM; median value; read-out: Biological Assay 1: Bub1 kinase assay median IC50
pIC50: −log10 of the molar value.
Property: pIC50

Some solved entries appear below for comparison.
COc1ccc(Cn2nc(-c3nccc(Nc4nnc(N)[nH]4)n3)c3ccccc32)cc1	5.55
CCOc1cc(F)c(Cn2nc(-c3ncc(OC)c(Nc4ccc(F)cc4C(=O)NC)n3)c3ccccc32)c(F)c1	5.17
COc1ccc(Cn2nc(-c3ncc(OC)c(Nc4ccnn4C)n3)c3ccccc32)cc1	5.48
Oc1cnc(-c2nn(Cc3ccccc3F)c3ccccc23)nc1Nc1ccncn1	7.89
CCOc1cc(F)c(Cn2nc(-c3cc(Nc4cn[nH]c4)ccn3)c3ccccc32)c(F)c1	7.77

(I) CCOc1cc(F)c(Cn2nc(-c3ncc(OC)c(Nc4ccc(O)cc4)n3)c3ccccc32)c(F)c1
(II) CCOc1cc(F)c(Cn2nc(-c3cc(Nc4nnc[nH]4)ccn3)c3ccccc32)c(F)c1
QUERY: Smaller pIC50 value, I vs II ? Write the label of whichever entry you select.
RESULT: II
